Study target: JMJD2E (Homo sapiens, UniProt B2RXH2)
Sequence (B2RXH2 1-337): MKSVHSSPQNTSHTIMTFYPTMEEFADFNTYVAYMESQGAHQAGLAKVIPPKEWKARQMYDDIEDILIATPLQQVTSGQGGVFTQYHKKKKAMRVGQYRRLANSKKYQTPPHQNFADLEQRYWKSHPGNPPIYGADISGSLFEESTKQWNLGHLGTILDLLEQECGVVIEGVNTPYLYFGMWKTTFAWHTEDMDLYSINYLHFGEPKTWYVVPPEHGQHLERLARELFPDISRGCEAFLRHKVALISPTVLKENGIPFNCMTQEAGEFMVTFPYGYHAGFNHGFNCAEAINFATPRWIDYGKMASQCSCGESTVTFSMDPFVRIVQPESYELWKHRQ
Assay name: miniaturized 1,536-well FDH-coupled JMJD2E qHTS assay
Assay type: biochemical
Where a name gives a salt, the structure may show the parent alone.
In this section, each of the compounds is paired with its reported IC50.
Readout type: IC50 (µM)

compound="NCCc1ccc(O)c(O)c1 [Dopamine hydrochloride]" experimental_result=7.1
compound="Oc1cc(O)c2c(c1)O[C@H](c1cc(O)c(O)c(O)c1)[C@H](O)C2 [Epigallocatechin]" experimental_result=5
compound=O=c1cc(-c2ccccc2)oc2cc(O)c(O)c(O)c12 experimental_result=4
compound=Oc1cc2c(cc1O)[C@@H]1c3ccc(O)c(O)c3OC[C@]1(O)C2 experimental_result=2
compound="Oc1ccc(C2CNCCc3c2cc(O)c(O)c3Cl)cc1 (stereo not shown) [Fenoldopam bromide]" experimental_result=7.9
compound="NCCc1cc(O)c(O)cc1O [Oxidopamine Hydrochloride]" experimental_result=4
compound=CC1(C)CCC2=C(O1)c1ccccc1C(=O)C2=O experimental_result=3.6
